System: NALM-6;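 also: ALL cell lines in 384-well plates, five doses spanning 10,000-fold, each plate scaled between vehicle and 100 µmol/L benzalkonium chloride controls, sDSS an adapted area-under-curve metric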
Experiment: selective drug sensitivity score (sDSS, relative to normal bone marrow) (sDSS (score)); higher = more potent and effective on the cell line relative to normal bone marrow cells
Conditions: 72 h
Recorded metric: selective drug sensitivity score

>>> assay_result("CNC(=O)c1cc(COc2nnc(Nc3ccc(Cl)cc3)c3ccoc23)ccn1 [Telatinib] (top concentration 10000 nM)")
0
>>> assay_result("CNC(=O)c1ccc(N2C(=S)N(c3ccc(C#N)c(C(F)(F)F)c3)C(=O)C2(C)C)cc1F [Enzalutamide] (top concentration 10000 nM)")
0.68
>>> assay_result("N#Cc1ccc2[nH]c(O)c(-c3ccc(CN4CCOCC4)cn3)c2c1 [AZD-1080] (top concentration 10000 nM)")
1.78
>>> assay_result("CC#CC(=O)N1CC[C@@H](n2c(=O)n(-c3ccc(Oc4ccccc4)cc3)c3c(N)ncnc32)C1 [Tirabrutinib] (top concentration 1000 nM)")
0
>>> assay_result("CN1CCN(c2ccc3nc(-c4c(N)c5c(F)cccc5[nH]c4=O)[nH]c3c2)CC1 [Dovitinib] (top concentration 10000 nM)")
-0.14
>>> assay_result("FC(F)(F)c1ccc(/C=C/c2nc(COc3ccc(CCCCn4ccnn4)cc3)co2)cc1 [Mubritinib] (top concentration 1000 nM)")
12.1
